Property: IC50; scope: individual molecules
target: human TLR7 (Homo sapiens); construct: host or cells: HEK-Blue cells; experiment: TLR7 inhibition reporter assay (HEK-Blue SEAP reporter); format: cell-based; details: HEK-Blue cells overexpressing human TLR7; gardiquimod 7.5 μM; 22 hour incubation
Sequence (Q9NYK1 27-1049): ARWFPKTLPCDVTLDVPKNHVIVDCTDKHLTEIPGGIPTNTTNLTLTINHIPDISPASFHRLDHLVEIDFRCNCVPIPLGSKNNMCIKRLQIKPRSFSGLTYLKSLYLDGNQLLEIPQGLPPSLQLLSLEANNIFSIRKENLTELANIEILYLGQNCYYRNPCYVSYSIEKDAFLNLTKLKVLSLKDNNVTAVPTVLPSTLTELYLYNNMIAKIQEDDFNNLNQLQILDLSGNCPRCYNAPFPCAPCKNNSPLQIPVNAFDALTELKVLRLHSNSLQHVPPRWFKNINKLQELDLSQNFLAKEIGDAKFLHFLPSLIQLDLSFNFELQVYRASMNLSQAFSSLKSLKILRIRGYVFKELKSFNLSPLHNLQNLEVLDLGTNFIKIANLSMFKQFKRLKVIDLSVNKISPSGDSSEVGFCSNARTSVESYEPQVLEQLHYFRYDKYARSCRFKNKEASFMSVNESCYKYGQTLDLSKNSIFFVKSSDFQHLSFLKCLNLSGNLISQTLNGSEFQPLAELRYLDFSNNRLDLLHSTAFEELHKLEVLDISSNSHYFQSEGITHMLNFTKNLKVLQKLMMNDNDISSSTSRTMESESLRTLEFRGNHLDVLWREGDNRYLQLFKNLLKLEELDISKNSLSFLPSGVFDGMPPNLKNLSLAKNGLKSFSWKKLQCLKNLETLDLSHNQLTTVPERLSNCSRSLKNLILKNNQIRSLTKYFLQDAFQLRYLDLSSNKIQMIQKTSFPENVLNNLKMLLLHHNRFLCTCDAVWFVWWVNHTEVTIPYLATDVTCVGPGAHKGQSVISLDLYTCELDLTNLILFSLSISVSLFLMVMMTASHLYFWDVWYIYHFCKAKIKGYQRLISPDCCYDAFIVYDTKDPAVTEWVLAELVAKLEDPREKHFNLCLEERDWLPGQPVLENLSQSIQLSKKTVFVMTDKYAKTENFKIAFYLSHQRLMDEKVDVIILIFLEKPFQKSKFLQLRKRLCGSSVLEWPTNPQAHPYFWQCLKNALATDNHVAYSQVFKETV
Measurement Kind: IC50

[[record]]
molecule = "CCN1CCN(C2CCC(Nc3ccc4[nH]c(-c5ccc(OC)c(OC)c5)c(C(C)C)c4c3)CC2)CC1 (centres unmarked) [Example 39]"
tested_on = "human TLR7 (Homo sapiens)"
measured = "242 nM"

[[record]]
molecule = "CCc1c(-c2ccc(OC)c(OC)c2)[nH]c2ccc(N3CCC4(CCN(C)CC4)CC3)cc12"
tested_on = "human TLR7 (Homo sapiens)"
measured = "54 nM"

[[record]]
molecule = "COc1ccc(-c2[nH]c3ccc(N4CCN(C5CCN(C)CC5)CC4)cc3c2C(C)C)cc1OC"
tested_on = "human TLR7 (Homo sapiens)"
measured = "30 nM"

[[record]]
molecule = "COc1ccc(-c2[nH]c3ccc(NC4CCC(N5CCN(C6CCN(C)CC6)CC5)CC4)cc3c2C(C)C)cc1OC (centres unmarked) [Example 61]"
tested_on = "human TLR7 (Homo sapiens)"
measured = "144 nM"

[[record]]
molecule = "COc1ccc(-c2[nH]c3ccc(N4CCC(N5CCCN(C)CC5)CC4)cc3c2C(C)C)cc1OC"
tested_on = "human TLR7 (Homo sapiens)"
measured = "281 nM"

[[record]]
molecule = "CCc1c(-c2ccnc(OC)c2)[nH]c2ccc(N3CCN(C4CCN(CC(C)C)CC4)CC3)cc12"
tested_on = "human TLR7 (Homo sapiens)"
measured = "106 nM"

[[record]]
molecule = "COc1ccc(-c2[nH]c3ccc(NC(=O)[C@@H](N)CCCN)cc3c2C(C)C)cc1OC"
tested_on = "human TLR7 (Homo sapiens)"
measured = "125 nM"

[[record]]
molecule = "CCc1c(-c2ccc(OC)c(OC)c2)[nH]c2ccc(N3CCN(C4CC(C)(C)NC(C)(C)C4)CC3)cc12"
tested_on = "human TLR7 (Homo sapiens)"
measured = "68 nM"


* * *

Property: IC50; scope: individual molecules
Molecular target: human TLR8 (Homo sapiens)
Sequence (Q9NR97 27-1041): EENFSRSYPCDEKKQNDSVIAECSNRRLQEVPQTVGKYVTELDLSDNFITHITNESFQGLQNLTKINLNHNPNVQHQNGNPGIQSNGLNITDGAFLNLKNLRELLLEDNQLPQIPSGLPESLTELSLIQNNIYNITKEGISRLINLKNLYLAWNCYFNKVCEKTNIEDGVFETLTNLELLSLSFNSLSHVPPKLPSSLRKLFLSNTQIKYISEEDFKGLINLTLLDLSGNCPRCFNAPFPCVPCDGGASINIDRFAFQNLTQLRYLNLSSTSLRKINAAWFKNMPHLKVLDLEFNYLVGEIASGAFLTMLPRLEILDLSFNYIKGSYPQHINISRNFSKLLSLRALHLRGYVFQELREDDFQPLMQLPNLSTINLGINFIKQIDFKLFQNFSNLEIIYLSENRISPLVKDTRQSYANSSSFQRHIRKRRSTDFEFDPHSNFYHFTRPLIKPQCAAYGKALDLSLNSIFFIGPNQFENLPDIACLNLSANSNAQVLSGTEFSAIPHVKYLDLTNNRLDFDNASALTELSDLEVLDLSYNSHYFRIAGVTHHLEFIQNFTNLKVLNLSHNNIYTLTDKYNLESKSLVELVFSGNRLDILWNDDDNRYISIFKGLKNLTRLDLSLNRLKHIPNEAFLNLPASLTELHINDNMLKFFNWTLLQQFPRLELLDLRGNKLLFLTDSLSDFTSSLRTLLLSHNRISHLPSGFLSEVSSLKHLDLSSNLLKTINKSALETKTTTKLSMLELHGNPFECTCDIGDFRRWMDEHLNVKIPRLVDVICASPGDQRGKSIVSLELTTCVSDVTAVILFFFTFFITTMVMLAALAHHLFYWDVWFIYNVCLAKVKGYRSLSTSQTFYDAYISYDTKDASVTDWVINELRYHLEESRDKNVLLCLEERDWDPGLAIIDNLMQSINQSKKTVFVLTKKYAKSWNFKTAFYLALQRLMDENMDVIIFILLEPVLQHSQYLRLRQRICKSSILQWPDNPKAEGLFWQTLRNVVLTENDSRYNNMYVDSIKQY
Test: TLR8 inhibition reporter assay (HEK-Blue SEAP reporter)
Settings: HEK-Blue cells overexpressing human TLR8; R848 15.9 μM; 22 hour incubation
Source text: TLR7/8/9 Inhibition Reporter Assays HEK-Blue™-cells (Invivogen) overexpressing human TLR7, TLR8 or TLR9 receptors were used for screening inhibitors of these receptors using an inducible SEAP (secreted embryonic alkaline phosphatase) reporter gene under the control of the IFN-β minimal promoter fused to five NF-κB and AP-1-binding sites. […]
Measurement Kind: IC50 (nM)

[[record]]
molecule = "COc1ccc(-c2[nH]c3ccc(NC4CCC(N5CCN(C6CCN(C)CC6)CC5)CC4)cc3c2C(C)C)cc1OC (centres unmarked) [Example 62]"
measurement_kind = "IC50"
unit_symbol = "nM"
value_qualifier = "="
measured = 212

[[record]]
molecule = "COc1ccc(-c2[nH]c3ccc(N(C)CC4CCCN4C)cc3c2C(C)C)cc1OC (centres unmarked) [Example 104]"
measurement_kind = "IC50"
unit_symbol = "nM"
value_qualifier = "="
measured = 9.7

[[record]]
molecule = "CNCCN1CCN(c2ccc3[nH]c(-c4ccnc5[nH]ccc45)c(C(C)C)c3c2)CC1 [Example 138]"
measurement_kind = "IC50"
unit_symbol = "nM"
value_qualifier = "="
measured = 0.62

[[record]]
molecule = "COc1ccc(-c2[nH]c3ccc(N4CCC(N5CCN(c6ccncc6)CC5)CC4)cc3c2C(C)C)cc1OC [Example 94]"
measurement_kind = "IC50"
unit_symbol = "nM"
value_qualifier = "="
measured = 3.5

[[record]]
molecule = "CCc1c(-c2ccnc(C)c2)[nH]c2ccc(N3CCN(C4CCN(C)CC4)CC3)cc12 [Example 139]"
measurement_kind = "IC50"
unit_symbol = "nM"
value_qualifier = "="
measured = 1070

[[record]]
molecule = "CCc1c(-c2ccnc(OC)c2)[nH]c2ccc(N3CCN(C4CC(C)(C)NC(C)(C)C4)CC3)cc12 [Example 161]"
measurement_kind = "IC50"
unit_symbol = "nM"
value_qualifier = "="
measured = 8.1

[[record]]
molecule = "CC(C)c1c(-c2ccnc3[nH]ccc23)[nH]c2ccc(N3CCNCC3)cc12 [Example 128]"
measurement_kind = "IC50"
unit_symbol = "nM"
value_qualifier = "="
measured = 0.41

[[record]]
molecule = "CCc1c(-c2ccc(OC)c(OC)c2)[nH]c2ccc(N3CCC4(CC3)CCN(C(C)C)CC4)cc12 [Example 183]"
measurement_kind = "IC50"
unit_symbol = "nM"
value_qualifier = "="
measured = 59

[[record]]
molecule = "COc1ccc(-c2[nH]c3ccc(N4CC5CCCNC5C4)cc3c2C(C)C)cc1OC (centres unmarked) [Example 135]"
measurement_kind = "IC50"
unit_symbol = "nM"
value_qualifier = "="
measured = 95

[[record]]
molecule = "Cc1c(-c2ccnc3[nH]ccc23)[nH]c2ccc(N3CCN(C4CCN(C(C)C)CC4)CC3)cc12 [Example 151]"
measurement_kind = "IC50"
unit_symbol = "nM"
value_qualifier = "="
measured = 47500

[[record]]
molecule = "CCN1CCC(N2CCN(c3ccc4[nH]c(-c5ccc(OC)c(OC)c5)c(C)c4c3)CC2)CC1 [Example 155]"
measurement_kind = "IC50"
unit_symbol = "nM"
value_qualifier = ">"
measured = 50000

